EXPERIMENT: amyloid nucleation score (Sup35N fusion, yeast selection) (log enrichment); library NNK1; higher = more nucleation; inactive = no reads after selection;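 note: zero at mode of non-aggregating sequences after 7 days selection at 30°C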
QUANTITY: amyloid nucleation score
# output: bare number, no unit

Query: In one line, give reported amyloid nucleation score of the entry KGGPRPQMC .
Response: -0.244

Query: Return the recorded amyloid nucleation score value; entry: LSGFLSYYLCKPKA
Response: -0.887

Query: Give amyloid nucleation score for the following substance: FNRLSCFFSKSHPVQTGYNS
Response: -0.01

Query: Entry YRVVLAECTSGYWEDIYSHI needs its amyloid nucleation score filled in; supply it.
Response: 1.75

Query: Complete the entry with amyloid nucleation score for IQYELMRMACSRNFIIAEFF
Response: 0.2

Query: Specify reported amyloid nucleation score for the substance shown: AWVYSYSRSILMWGVTGLWV
Response: 0.77

Query: Provide one value: measured amyloid nucleation score of VNLFVLYPIYLFGSCSHNLM
Response: 7.37

Query: Retrieve amyloid nucleation score measured for IFNSATSTCNSRYIYIK and print it.
Response: 4.26

Query: Given the substance RVDGHTVR , write its reported amyloid nucleation score.
Response: 2.4

Query: Give the reported value of amyloid nucleation score for this record: FGWGTLIGGLWTDNEQSLFT
Response: -0.375

Query: Give reported amyloid nucleation score value for GPLFYNTM
Response: 0.159

Query: Could you please provide reported amyloid nucleation score for VYLGRFTPDGVMNYYNYSYV ? Thanks!
Response: -0.763

Query: # return recorded amyloid nucleation score for entry GTLPLKDKGPYRDL
Response: -1.08

Query: Read off the recorded amyloid nucleation score for FRCYVFANCD
Response: 1.59

Query: Given the substance DFILLVVLYFVLYFFTCMVL , write its reported amyloid nucleation score.
Response: 0.22

Query: Dear colleague, please send me the reported amyloid nucleation score for FSYYVKGDGKERVGWMASIM when you can.
Response: -0.94

Query: // fetch amyloid nucleation score given entry RHVNEQDILREQFLLMDFRK
Response: 0.753

Query: In one line, give reported amyloid nucleation score of the entry YRGIEAFCAGTNWTSPKWSR .
Response: -0.169

Query: Supply amyloid nucleation score value. Item: LALHSNNQLFF
Response: 0.839

Query: Give amyloid nucleation score for CVTANRHDENITSLLWRIVQ
Response: -2.36

Query: Please supply the value of reported amyloid nucleation score for the item EYRFVN
Response: -0.227

Query: Name the recorded amyloid nucleation score of the item TEALYWRLYMGQNKILSCRG in your answer.
Response: 0.366

Query: Give the reported value of amyloid nucleation score for this record: GTDPGY
Response: -0.706

Query: Return value of amyloid nucleation score for input AMQKESRGTWGSVTAQVHGM , no commentary.
Response: 0.304

Query: Report amyloid nucleation score, nothing else, for this substance: RGRVSNY
Response: -0.455

Query: Please give the documented amyloid nucleation score of GNTVQLGRAGRFHVYDLRGV
Response: -0.357

Query: Fill in amyloid nucleation score for record GRLSYIIRSYSLIRV
Response: -1.21

Query: # return recorded amyloid nucleation score for entry FNCRVNFFDSVGY
Response: 3.28

Query: Please list amyloid nucleation score recorded for the substance WNSRTSESC
Response: 2.97

Query: Give reported amyloid nucleation score value for IKKEIRSVFGLSGTSVKGNN
Response: -0.118

Query: Return the recorded amyloid nucleation score value; entry: LTPNVFAL
Response: -0.345

Query: Return reported amyloid nucleation score. Input substance: GRAWCFY
Response: 0.15

Query: Look up and state reported amyloid nucleation score for NTAQVLYYL
Response: -0.674

Query: Note down amyloid nucleation score recorded for LIEVWYVLIQGECDPWVTHG
Response: 1.07

Query: Please report the measured amyloid nucleation score for MNFSYLWVYGNGL
Response: -0.629

Query: Let me know recorded amyloid nucleation score for SFEKKSVPNSANLGATVLPN , thanks.
Response: 0.196

Query: Give reported amyloid nucleation score value for TVDVPLAASSNKYKFMFYCE
Response: 3.92

Query: Respond only with amyloid nucleation score recorded for PRTNSNMIKCYIFDNAWNQL
Response: 6.23

Query: Determine its reported amyloid nucleation score: GYGLSAL
Response: 1.08

Query: Fill in amyloid nucleation score for record TWCCEVNAAVEHG
Response: -1.17

Query: Answer with the recorded amyloid nucleation score of ANDMMRKDCTFDTSVFMESV only.
Response: -0.379

Query: Check the records and state amyloid nucleation score for GNCKGKRPSRGGRCSGQ
Response: 1.2

Query: Report measured amyloid nucleation score; entry is KMSNCWLF
Response: -0.881

Query: Assign amyloid nucleation score to the following record: GTLRHDVMRQLTFLCYFINL
Response: 0.047

Query: Supply amyloid nucleation score value. Item: RWTVLRIWIYEVQKIAARRS
Response: 0.098

Query: Respond only with amyloid nucleation score recorded for SIFLSNILNDTWFLSALSCM
Response: -1.41

Query: For RLPLMNWFTAMA , write its amyloid nucleation score.
Response: 0.037

Query: Name the recorded amyloid nucleation score of the substance listed here: VLGKCVNR
Response: -0.366

Query: Provide one value: measured amyloid nucleation score of QYLFIYFLALS
Response: -1.27

Query: Note amyloid nucleation score for the substance shown: LCLRLCPLMVWSCVLERWVS
Response: -1.78

Query: Give the reported value of amyloid nucleation score for this record: LSQIWIKSPGFAKDFTPILC
Response: 0.045

Query: Return amyloid nucleation score for the following substance: IHVSENDMELVWLYGVVRI
Response: -0.708

Query: Please give measured amyloid nucleation score of the following entry: AHLEGYYHWHYSEFWSVVVK
Response: -0.437

Query: Report amyloid nucleation score for FTWERSH
Response: 0.655

Query: Using the record for NRRMCFRCIFGFHVCKLNGW , state its measured amyloid nucleation score.
Response: -0.027

Query: Complete the entry with amyloid nucleation score for TYHFCLFMSYSGSNRAALCN
Response: -0.212

Query: Give a short answer stating reported amyloid nucleation score for FVLERTGIRLLCL .
Response: 0.363

Query: Please look at this substance and report its amyloid nucleation score: HSGGVTIQLCSKACVYSGAG
Response: 0.754

Query: Quick one: give measured amyloid nucleation score for ATRFIEESTL
Response: -0.942

Query: Supply reported amyloid nucleation score belonging to this substance: FKVSVALSWDDVSQFGYGYG
Response: 0.117

Query: Name the recorded amyloid nucleation score of the substance listed here: QGSSSGITQFGMPTYLGIIC
Response: 0.61

Query: Specify measured amyloid nucleation score for LTRSRGVSRLYIVRGVTDVW .
Response: 0.076

Query: Name the recorded amyloid nucleation score of the substance listed here: TCCDRSRCSESSEGRRFQRT
Response: 0.162

Query: # return recorded amyloid nucleation score for input DYGDYCAKWTQSYNALTVRF
Response: 0.594

Query: Could you please provide reported amyloid nucleation score for CFNLALLRVLAGTKLYSFMG ? Thanks!
Response: 0.64

Query: Using known records, supply amyloid nucleation score for SSMLSSNRRSALWKQDVSKG
Response: 0.734

Query: # return recorded amyloid nucleation score for input LVCRYFRNRWMPSTRWGVHS
Response: 0.711

---

EXPERIMENT: amyloid nucleation score (Sup35N fusion, yeast selection) (log enrichment); library NNK1; higher = more nucleation; inactive = no reads after selection
Can you tell me amyloid nucleation score for the items I'm about to list?
Format: numeric value only, no unit, no commentary.

Query: Look up and report measured amyloid nucleation score for this entry: STMRLPWPGFRVHSL
Response: 0.901

Query: Tell us which amyloid nucleation score value is on record for VLFGTCCRVILLWSV
Response: 2.04

Query: Give a short answer stating reported amyloid nucleation score for IQAKKDPTAESQRGCC .
Response: 0.197

Query: Indicate the recorded amyloid nucleation score value for this substance: DVNNIHLRKLTDCHI
Response: 1.61

Query: Give the reported value of amyloid nucleation score for this record: AFHLTSSSLFLFSWNSWVAV
Response: 5.3

Query: Please report the measured amyloid nucleation score for NLDFLLFGIECIVKTCPFGY
Response: 0.01

Query: Tell me amyloid nucleation score reported for IIKFSNDWDVDKFSFGSVLE
Response: 0.596

Query: Note down amyloid nucleation score recorded for FCHVRTL
Response: -0.97

Query: For the substance LAGIVCEWWFGWVGDVQLAF , give its measured amyloid nucleation score value.
Response: -0.604

Query: Give me measured amyloid nucleation score, please, for this substance: SRWTQS
Response: 0.201

Query: Note down amyloid nucleation score recorded for IGCSCNPYGTFWG
Response: 5.93

Query: Return value of amyloid nucleation score for input TFVCAFRGY , no commentary.
Response: 2.19

Query: Determine its reported amyloid nucleation score: AFKNAAGMRGMTWISSEVGA
Response: 0.145

Query: Look up and state reported amyloid nucleation score for VGNMRYL
Response: -0.332

Query: Quote amyloid nucleation score reported for SSSFPVMVYTHDAANCHRML please.
Response: -0.763

Query: Give the reported value of amyloid nucleation score for this record: VVCRPTWRWGLKEIYE
Response: -0.133

Query: Note amyloid nucleation score for the substance shown: FMTEWSVTFMRMYMAYLGSV
Response: 0.424

Query: Using the record for YYQRTPSTDRSLWFTGWNVN , state its measured amyloid nucleation score.
Response: -0.424
